Reference source: the RNAGym collection of RNA variant scans (doi:10.7554/elife.80360)

B1: HDV Ribozyme (parent)
chain: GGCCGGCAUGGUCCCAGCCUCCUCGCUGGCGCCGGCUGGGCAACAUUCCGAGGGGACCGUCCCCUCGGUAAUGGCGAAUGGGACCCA

Variants of: B1
Assay: self-cleavage, relative activity (ratio to wild type); higher = more cleavage; co-transcriptional
Assay endpoint: self-cleavage
Give a plain numeric answer without units written out.

>  <Seq>
GGCCGGCAUGGUCCCAGCCUCUUCGCUGGCGCCGGCUGGGCAACAUUCCGAGGGGACCGUCCCCUCGGUAAUGGCGAUUGGGACCCA [C22U A78U]

>  <self-cleavage>
0.197

$$$$
>  <Seq>
GCCCGGCAUGGUCCCAGCCUCCACGCUGGCGCCGGCUGGGCAACAUUCCGAGGGGACCGUCCCCUCGGUAAUGGCGAAUGGGACCCA [G2C U23A]

>  <self-cleavage>
0

$$$$
>  <Seq>
GGCCGGCAUGGGCCCAGCCUCCUCGCUGGCGCCGGCUGGGCAACAUUCCGAGGGGACCCUCCCCUCGGUAAUGGCGAAUGGGACCCA [U12G G59C]

>  <self-cleavage>
0.95

$$$$
>  <Seq>
GGCCGGCAUGGUCCCAGCCUCCUCGCUGGCGCCGGCUGGGCAACAUUCCGAGGGGACCGUCCCCUCGGUUAUGGCGAAUGGGACCAA [A70U C86A]

>  <self-cleavage>
1.02

$$$$

Would you kindly share the measured self-cleavage for GGCCGGCAUCGUCCCAGCCUCCUCGCUGGCGCCGGCUGGGUAACAUUCCGAGGGGACCGUCCCCUCGGUAAUGGCGAAUGGGACCCA [G10C C41U] ? 0.692

Would you kindly share the measured self-cleavage for GGCCGGCAUGGUCCCAGCCUCCUCGCUGGCCCCGGCUGGGCAACAUUCCGAGGGGACCGUCCCCUCGGUAAUGGCGAAUGGGACUCA [G31C C85U] ? 0.299

Would you kindly share the measured self-cleavage for GGCCGGCAUGGUCCCAGCCUCCUCGCUGGCGCCGGCUGGGCAACAUUCCGAGGGGACCGUCCCCUCUGUAAUUGCGAAUGGGACCCA [G67U G73U] ? 0.263

Would you kindly share the measured self-cleavage for GGGCGGCAUGGUCCCAGCCUCCUCGCUGGCGCCGGCUGGGCAACAUUCCGAGGCGACCGUCCCCUCGGUAAUGGCGAAUGGGACCCA [C3G G54C] ? 0.674

Would you kindly share the measured self-cleavage for GGCCUGCAUGGUCCCAGCCUCCUCGCUGGCGCCGGCUGGGCGACAUUCCGAGGGGACCGUCCCCUCGGUAAUGGCGAAUGGGACCCA [G5U A42G] ? 0.249
